Source of measurements: patent US4410516A

Measured MIC values are reported for all entries that follow.
test system: Escherichia coli JR66/W677; assay: Minimum inhibitory concentration, serial dilution on nutrient agar; assay type: cell-based; conditions: JR66/W677, 18 h
Record the value in µg/mL, omitting the unit from your answer.

Consider the following illustrative entries.
>>> result_value("CNC[C@@H]1CC[C@@H](N)[C@@H](O[C@H]2C[C@@H](O[C@H]3O[C@H](CO)[C@@H](O)[C@H](N)[C@H]3O)[C@H](NC(=O)[C@@H](O)CCN)C[C@@H]2N)O1")
1.56
>>> result_value("CNC[C@@H]1CC[C@@H](N)[C@@H](O[C@H]2C[C@@H](O[C@H]3O[C@H](CO)[C@@H](O)[C@H](N)[C@H]3O)[C@H](NC(=O)C(O)CN)C[C@@H]2N)O1 (some centres unmarked)")
6.25
>>> result_value("CNC[C@@H]1CC[C@@H](N)[C@@H](O[C@H]2C[C@@H](O[C@H]3O[C@H](CO)[C@@H](O)[C@H](N)[C@H]3O)[C@H](NC(=O)[C@@H](O)CCCN)C[C@@H]2N)O1")
3.13
>>> result_value("NCC[C@H](O)C(=O)N[C@@H]1C[C@H](N)[C@@H](O[C@H]2O[C@H](CN)CC[C@H]2N)[C@H](O)[C@H]1O[C@H]1O[C@H](CO)[C@@H](O)[C@H](N)[C@H]1O [Habekacin, reference compound]")
6.25

Consider now this further compound.
Which value of MIC has been reported for `C[C@H]1O[C@H](O[C@@H]2C[C@H](O[C@H]3O[C@H](CN)CC[C@H]3N)[C@@H](N)C[C@H]2NC(=O)[C@@H](O)CCN)[C@H](O)[C@@H](N)[C@@H]1O` in the records? 1.56
